Target: sGC α1/β1 heterodimer (Homo sapiens (Human), UniProt Q02108+Q02153)
Experiment: Cell-based sGC functional assay (CASA assay), cGMP by HTRF
Details: inflection point of cGMP production, 4P fit; CHO-K1/sGC cells; read-out: IP
Property name: log10(EC50) (log10 of the value in µM)

INSERT INTO results (compound, obs_value) VALUES
  ('CC1(c2ccc(Cl)c(O)c2)C(=O)Nc2nc(-c3cn4ncnc4c(CCC(F)(F)C(F)(F)F)n3)nc(NCCCC(F)(F)F)c21 (stereo not shown)', -0.46),
  ('CC1(c2ccc(O)c(Cl)c2)C(=O)Nc2nc(-c3cn4ncnc4c(Cc4ccc(F)cc4)n3)nc(N)c21 (stereo not shown)', 0.33),
  ('CC1(c2cccc(O)c2)C(=O)Nc2nc(-c3cn4ccnc4c(Cc4cccc(Cl)c4)n3)nc(N)c21 (stereo not shown)', -0.65),
  ('CC1(c2ccc(Cl)c(O)c2Cl)C(=O)Nc2nc(-c3cn4ccnc4c(CC4CCCCC4)n3)nc(N)c21 (stereo not shown)', 0.14),
  ('CC1(c2cccc(O)c2)C(=O)Nc2nc(-c3cn4ccnc4c(Cc4ccc(F)cc4)n3)nc(N)c21 (stereo not shown)', -1.09),
  ('CC1(c2ccc(Cl)c(O)c2)C(=O)Nc2nc(-c3cn4ccnc4c(Cc4ccc(F)c(F)c4)n3)nc(N)c21 (stereo not shown)', -0.90),
  ('CC1(c2ncc(Cl)c(O)c2Cl)C(=O)Nc2nc(-c3cn4ccnc4c(Cc4cc(F)cc(F)c4)n3)nc(N)c21 (stereo not shown)', -0.16);

----------
Biological target: sGC α1/β1 heterodimer (Homo sapiens (Human), UniProt Q02108+Q02153)
Assay: Cell-based sGC functional assay (CASA assay), cGMP by HTRF
Conditions: CHO-K1, cGMP production as percentage of maximum of compound A (set to 100%); CHO-K1/sGC cells; read-out: % Activation
Property name: Emax (%)

INSERT INTO assay_data (compound, obs_value) VALUES
  ('CC1(c2ccc(Cl)c(O)n2)C(=O)Nc2nc(-c3cn4ccnc4c(CC4CCCCC4)n3)nc(N)c21 (stereo not shown)', 111),
  ('Cc1cnc(C2(C)C(=O)Nc3nc(-c4cn5ccnc5c(Cc5cccc(F)c5)n4)nc(N)c32)cc1O (stereo not shown)', 84),
  ('CC1(c2ccc(Cl)c(O)c2)C(=O)Nc2nc(-c3cn4ccnc4c(CCCC(F)(F)F)n3)nc(N)c21 (stereo not shown)', 113),
  ('CCCCc1nc(-c2nc(N)c3c(n2)NC(=O)C3(C)c2ccc(O)c(Cl)c2)cn2ncnc12 (stereo not shown)', 122);

----------
Molecular target: human recombinant sGC enzyme (Homo sapiens (Human), UniProt Q02108+Q02153)
Assay: SEC competition binding assay with [3H] Compound B radioligand
Details: displacement of 1.6 nM [3H] Compound B, 24 h at 37° C.
Mark true (1) for Ki under 0.2 nM, false (0) if at or over.

INSERT INTO assay_data (compound, system_name, category) VALUES
  ('CC1(c2cc(O)c(C#N)c(Cl)c2)C(=O)Nc2nc(-c3cn4ncnc4c(Cc4ccccc4F)n3)nc(N)c21 (stereo not shown) [Example 149-A]', 'human recombinant sGC enzyme (Homo sapiens (Human), UniProt Q02108+Q02153)', 'false (0)'),
  ('CC(C)CCc1nc(-c2nc(N)c3c(n2)NC(=O)C3(C)c2cc(O)c(Cl)cn2)cn2ccnc12 (stereo not shown) [Example 57-B]', 'human recombinant sGC enzyme (Homo sapiens (Human), UniProt Q02108+Q02153)', 'false (0)'),
  ('CC1(c2ccc(Cl)c(O)c2)C(=O)Nc2nc(-c3cn4ncnc4c(CCC(F)(F)C(F)(F)F)n3)nc(NCC(O)C(F)(F)F)c21 (single isomer, unassigned) [Example 133-AB]', 'human recombinant sGC enzyme (Homo sapiens (Human), UniProt Q02108+Q02153)', 'false (0)'),
  ('CC1(c2ccc(C(F)(F)F)c(O)c2)C(=O)Nc2nc(-c3cn4ccnc4c(Cc4cccc(F)c4)n3)nc(N)c21 (stereo not shown) [Example 17-B]', 'human recombinant sGC enzyme (Homo sapiens (Human), UniProt Q02108+Q02153)', 'true (1)'),
  ('CC1(c2cc(O)c(Cl)c(F)c2)C(=O)Nc2nc(-c3cn4ccnc4c(Cc4cc(F)cc(F)c4)n3)nc(N)c21 (stereo not shown) [Example 16-B]', 'human recombinant sGC enzyme (Homo sapiens (Human), UniProt Q02108+Q02153)', 'true (1)'),
  ('CC1(c2ccc(Cl)c(O)c2)C(=O)Nc2nc(-c3cn4ccnc4c(Cc4ccc(F)cc4)n3)nc(NCC(O)C(F)(F)F)c21 (single isomer, unassigned) [Example 132-AB]', 'human recombinant sGC enzyme (Homo sapiens (Human), UniProt Q02108+Q02153)', 'false (0)'),
  ('CCCCc1nc(-c2nc(N)c3c(n2)NC(=O)C3(C)c2ccc(Cl)c(O)c2)cn2ncnc12 (stereo not shown) [Example 50-A]', 'human recombinant sGC enzyme (Homo sapiens (Human), UniProt Q02108+Q02153)', 'false (0)'),
  ('CCCCc1nc(-c2nc(N)c3c(n2)NC(=O)C3(C)c2ccc(C(F)(F)F)c(O)c2)cn2ncnc12 (stereo not shown) [Example 61-B]', 'human recombinant sGC enzyme (Homo sapiens (Human), UniProt Q02108+Q02153)', 'false (0)'),
  ('CC1(c2ccc(F)c(O)c2)C(=O)Nc2nc(-c3cn4ccnc4c(Cc4ccccc4F)n3)nc(N)c21 (stereo not shown) [Example 13-B]', 'human recombinant sGC enzyme (Homo sapiens (Human), UniProt Q02108+Q02153)', 'true (1)'),
  ('CC1(c2ccc(O)c(Cl)c2)C(=O)Nc2nc(-c3cn4ccnc4c(Cc4cccc(F)c4)n3)nc(N)c21 (stereo not shown) [Example 35-B]', 'human recombinant sGC enzyme (Homo sapiens (Human), UniProt Q02108+Q02153)', 'false (0)'),
  ('CC1(c2cc(O)c(C#N)c(F)c2)C(=O)Nc2nc(-c3cn4ccnc4c(Cc4cc(F)cc(F)c4F)n3)nc(N)c21 (stereo not shown) [Example 102-B]', 'human recombinant sGC enzyme (Homo sapiens (Human), UniProt Q02108+Q02153)', 'true (1)'),
  ('CC1(c2cc(O)c(C#N)c(F)c2)C(=O)Nc2nc(-c3cn4ccnc4c(Cc4cc(F)cc(F)c4)n3)nc(N)c21 (stereo not shown) [Example 38-B]', 'human recombinant sGC enzyme (Homo sapiens (Human), UniProt Q02108+Q02153)', 'false (0)');
